Where do the numbers come from? From PubChem BioAssay (NCI).

- Test system: HOP-62 NSCLC
- assay-info: NCI tumour cell line growth inhibition, 48 h
result-type: TGI

compound: O=C1C=CC2OC(c3ccccc3)C(O)C2O1 (stereo unspecified)
system-under-test: HOP-62 NSCLC
TGI: 26 µM

Recorded TGI for COc1ccc(/C(C)=N/NC(=O)c2ccncc2)c(OC)c1 with HOP-62 NSCLC, please?
> 10 µM

Recorded TGI for COC(=O)c1cc(C(=O)OC)c(CC(=O)C(=O)NC2C3CC4CC(C3)CC2C4)nc1CC(=O)C(=O)NC1C2CC3CC(C2)CC1C3 (stereo unspecified) with HOP-62 NSCLC, please?
> 100 µM

Recorded TGI for CSc1c(C2=C(c3cn(C)c4ccccc34)C(=O)NC2=O)c2ccccc2n1C with HOP-62 NSCLC, please?
> 25 µM

Recorded TGI for NNC(=O)CC(=O)Nc1cccc(Cl)c1 with HOP-62 NSCLC, please?
> 100 µM

Recorded TGI for Clc1cccc(-c2sc(-c3ccsc3)cc2Cc2ccsc2)c1 with HOP-62 NSCLC, please?
> 10 µM

Recorded TGI for Clc1cc2nn(C3CCCCO3)nc2cc1Cl (stereo unspecified) with HOP-62 NSCLC, please?
> 100 µM

Recorded TGI for COc1ccc(C#Cc2ccc(=O)oc2-c2cc(OC)c(OC)c(OC)c2)cc1O with HOP-62 NSCLC, please?
> 64.6 µM

Recorded TGI for C[C@@]1(C(=O)O)CCC[C@]2(C)C1CC[C@@]13C[C@@](O)(CC[C@]12O)[C@@]1(CO1)C3 (stereo partly specified) with HOP-62 NSCLC, please?
> 100 µM

Recorded TGI for C[C@]12CCC(=O)C(OC(=O)c3ccc([N+](=O)[O-])cc3)=C1CCC2=O with HOP-62 NSCLC, please?
> 100 µM

Recorded TGI for COc1ccccc1Cc1ccc(C2C=CC3(CC(=O)C=C3C)C(=O)C2)o1 (stereo unspecified) with HOP-62 NSCLC, please?
50.3 µM

Recorded TGI for CC1(C)[C@@H]2C[C@H]1[C@@H](Cc1cccc(C[C@H]3c4cc(-c5ccccn5)ncc4[C@H]4C[C@@H]3C4(C)C)c1)c1cc(-c3ccccn3)ncc12 with HOP-62 NSCLC, please?
> 100 µM

Recorded TGI for NC(=NCc1ccccc1)C(N=Nc1ccccc1)C(=O)NCc1ccccc1 (stereo unspecified) with HOP-62 NSCLC, please?
29.6 µM

Recorded TGI for O=C(CC1(O)C(=O)N(Cc2ccccc2)c2ccc(Cl)cc21)c1ccc(C(=O)NCC2CCC3(CC2)OOC2(CCCCC2)OO3)cc1 (stereo unspecified) with HOP-62 NSCLC, please?
0.39 µM

Recorded TGI for COC(=O)C1=C(O)[C@H](C(=O)OC)C2(O)C(C(=O)OC)[C@H](c3ccc(OC(=O)C(C)c4ccccc4)cc3)C[C@@H]1[C@@H]2C(=O)OC (stereo partly specified) with HOP-62 NSCLC, please?
> 50 µM

Recorded TGI for CCCCCCCCCCCCOP(=O)(O)OP(=O)(O)OCC1OC(n2ccc(N)nc2=O)CC1O (stereo unspecified) with HOP-62 NSCLC, please?
> 100 µM

---

- Test system: SR leukemia
- assay-info: NCI tumour cell line growth inhibition, 48 h
result-type: TGI (µM)
Provide only the numeric value, understood in µM.

Worked set:
compound: COc1ccc(C#Cc2ccc(=O)oc2-c2cc(OC)c(OC)c(OC)c2)cc1O
units-label: µM
TGI: 18.7
//
compound: CC(=O)OC1CCC2(C)C(CCC3C2CC(=O)C2(C)C3CC(N3CC3)C2C(C)=O)C1 (stereo unspecified)
units-label: µM
TGI: 64.7
//
compound: Cc1nc2c(c(N3CCCc4ccccc43)n1)CCC2
units-label: µM
TGI: 13.1
//
compound: CCN1CCC(Nc2ccnc3cc(Cl)ccc23)CC1
units-label: µM
TGI: 28.2

Recorded TGI for Cc1ccc2oc(=O)cc(/C(=C3/C=CC=N3)c3ccc[nH]3)c2c1 with SR leukemia, please?
1.46
